# PROTOCOL_NOTES: Half life in Sprague-Dawley rat
# Type: ADME, organism-based
# TEST_SETTINGS: in vivo
Reported half-life values for the following molecules.

MOLECULE | UNIT_SPEC | half-life
CCN(CC)CCCC(C)NC(=O)CCCc1cc(-c2cc(Cl)cc(Cl)c2)nn1-c1ccc2ccccc2c1 (configuration not stated) | h | 6.52
COC(=O)[C@H](CCCNC(=N)N)NC(=O)CCCc1cc(-c2cc(Cl)cc(Cl)c2)nn1-c1ccc2ccccc2c1 | h | 2.49

----------
# TESTED_ON: C-C chemokine receptor type 5 (Homo sapiens)
# Sequence (P51681 whole entry): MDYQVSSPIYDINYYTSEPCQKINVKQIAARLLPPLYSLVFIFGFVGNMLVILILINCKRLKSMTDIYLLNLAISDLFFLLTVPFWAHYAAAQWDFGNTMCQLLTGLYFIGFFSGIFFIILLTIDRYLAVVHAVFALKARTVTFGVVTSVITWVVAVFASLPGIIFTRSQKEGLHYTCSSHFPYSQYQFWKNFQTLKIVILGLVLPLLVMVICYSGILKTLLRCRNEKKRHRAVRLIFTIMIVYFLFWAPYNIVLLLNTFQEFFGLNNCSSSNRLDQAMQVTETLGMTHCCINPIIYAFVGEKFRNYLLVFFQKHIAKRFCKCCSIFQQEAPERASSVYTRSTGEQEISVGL

COMPOUND | IC50 [nM]
CCN(CC)CCCC(NC(=O)CCOc1cc(-c2cc(Cl)cc(Cl)c2)nn1-c1ccc2ccccc2c1)C(C)C (configuration not stated) | 1610
CCN(CC)CCCC(C)NC(=O)CCCc1cc(-c2cc(Cl)cc(Cl)c2)nn1-c1ccc2ccccc2c1 (configuration not stated) | 220

----------
# PROTOCOL_NOTES: Volume of distribution in Sprague-Dawley rat
# Assay type: ADME, organism-based
# TEST_SETTINGS: in vivo
Reported Vd values for the following compounds.

COMPOUND | Vd, L/kg
CCN(CC)CCCC(C)NC(=O)CCCc1cc(-c2cc(Cl)cc(Cl)c2)nn1-c1ccc2ccccc2c1 (configuration not stated) | 13
COC(=O)[C@H](CCCNC(=N)N)NC(=O)CCCc1cc(-c2cc(Cl)cc(Cl)c2)nn1-c1ccc2ccccc2c1 | 0.98

----------
# TESTED_ON: C-C chemokine receptor type 2 (Homo sapiens)
# Sequence (P41597 whole entry): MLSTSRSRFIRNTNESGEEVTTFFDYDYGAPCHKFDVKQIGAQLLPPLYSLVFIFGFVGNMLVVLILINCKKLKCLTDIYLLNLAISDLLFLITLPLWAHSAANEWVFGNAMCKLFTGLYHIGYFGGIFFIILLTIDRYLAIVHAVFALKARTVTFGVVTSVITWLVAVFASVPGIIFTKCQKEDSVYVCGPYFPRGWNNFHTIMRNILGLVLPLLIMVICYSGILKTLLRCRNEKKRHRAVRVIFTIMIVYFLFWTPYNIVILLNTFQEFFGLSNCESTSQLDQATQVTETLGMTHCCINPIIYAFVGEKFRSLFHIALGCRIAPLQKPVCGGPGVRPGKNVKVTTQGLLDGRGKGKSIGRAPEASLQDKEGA
# PROTOCOL_NOTES: Displacement of 125I-hMCP1 from CCR2 expressed in human peripheral blood monocytes after 60 mins
# Format: cell-based
Reported log10(IC50) values for the following compounds.
PARAMETER: log10(IC50) (log10 of the value in nM)

COMPOUND | log10(IC50)
CCN(CC)CCCC(CC(C)C)NC(=O)CCOc1cc(-c2cc(Cl)cc(Cl)c2)nn1-c1ccc2ccccc2c1 (stereo not drawn) | 1.87
CCN(CC)CCCC(C)NC(=O)CCCc1cc(-c2cccc(C(F)(F)F)c2)nn1-c1ccc2ccccc2c1 (stereo not drawn) | 2.32
COC(=O)[C@H](CCCNC(=N)N)NC(=O)CCOc1cc(-c2cc(Cl)cc(Cl)c2)nn1-c1ccc2ccccc2c1 | 1.79
COC(=O)[C@H](CCCNC(=N)N)NC(=O)CCCc1cc(-c2cc(Cl)cc(Cl)c2)nn1-c1ccc2ccccc2c1 | 2.34
CCN(CC)CCCC(C)NC(=O)CCCc1cc(-c2cccc(OC)c2)nn1-c1ccc2ccccc2c1 (stereo not drawn) | 3.38
CCN(CC)CCCC(NC(=O)CCOc1cc(-c2cc(Cl)cc(Cl)c2)nn1-c1ccc2ccccc2c1)C(C)C (stereo not drawn) | 0.78
COC(=O)[C@H](CCCN=C(N)N)NC(=O)CCc1cc(-c2cc(Cl)cc(Cl)c2)nn1-c1ccc2ccccc2c1 | 3.68
CCN(CC)CCCC(C)NC(=O)CCCc1cc(-c2cccc(F)c2)nn1-c1ccc2ccccc2c1 (stereo not drawn) | 2.72

----------
# PROTOCOL_NOTES: Clearance in Sprague-Dawley rat at 1 mg/kg, iv and 2 mg/kg, po
# Type: ADME, organism-based
# TEST_SETTINGS: in vivo

COMPOUND | clearance / L/h/kg
COC(=O)[C@H](CCCNC(=N)N)NC(=O)CCCc1cc(-c2cc(Cl)cc(Cl)c2)nn1-c1ccc2ccccc2c1 | 0.498
CCN(CC)CCCC(C)NC(=O)CCCc1cc(-c2cc(Cl)cc(Cl)c2)nn1-c1ccc2ccccc2c1 (configuration not stated) | 1.69
